Reported refractive index values for the following compounds.
Assay: refractive index (Na D-line) (dimensionless)
Details: 303.15 K; 101.33 kPa; Liquid
Note: the reply should be a number with no unit written.

compound	measurementType	numericValue
Clc1ccccc1	refractive index	1.521
CCCCC(CC)CO (centres undefined)	refractive index	1.4266

For c1ccccc1 , what is its reported refractive index?
1.4949

For Brc1ccccc1 , what is its reported refractive index?
1.555

====

Reported viscosity values for the following compounds.
Conditions: 308.15 K; 101 kPa; Liquid
Unit mPa·s implied. Number only.

compound	unit	numericValue
c1ccccc1 [benzene]	mPa·s	0.533
Brc1ccccc1 [bromobenzene]	mPa·s	0.972
CCCCC(CC)CO (centres undefined) [2-ethyl-1-hexanol]	mPa·s	6.09

We now examine a further compound.
For Clc1ccccc1 [chlorobenzene] , what is its reported viscosity?
0.66
